Data origin: patent US11149031B2

Entries and their % Degradation at 3 μM
assayed system: ERα in MCF7 cells (Homo sapiens (Human))
Sequence (P03372 whole entry): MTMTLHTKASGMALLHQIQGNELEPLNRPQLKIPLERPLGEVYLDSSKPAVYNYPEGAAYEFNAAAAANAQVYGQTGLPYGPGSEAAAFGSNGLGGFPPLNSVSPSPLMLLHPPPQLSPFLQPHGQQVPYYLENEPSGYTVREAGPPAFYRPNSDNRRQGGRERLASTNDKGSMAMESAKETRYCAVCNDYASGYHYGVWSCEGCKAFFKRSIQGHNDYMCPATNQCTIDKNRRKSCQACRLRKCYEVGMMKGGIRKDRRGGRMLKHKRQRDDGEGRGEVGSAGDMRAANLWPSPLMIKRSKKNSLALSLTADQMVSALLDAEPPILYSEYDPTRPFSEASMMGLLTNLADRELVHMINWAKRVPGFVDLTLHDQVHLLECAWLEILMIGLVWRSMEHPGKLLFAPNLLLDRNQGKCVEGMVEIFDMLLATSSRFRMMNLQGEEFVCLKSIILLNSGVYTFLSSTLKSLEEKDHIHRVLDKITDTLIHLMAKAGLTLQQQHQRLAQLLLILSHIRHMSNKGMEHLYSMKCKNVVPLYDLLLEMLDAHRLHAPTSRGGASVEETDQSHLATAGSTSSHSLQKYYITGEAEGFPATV
assay explanation: Test C: estrogen receptor degradation activity, ERα in cell western assay in MCF7 cells
Assay type: cell-based
details: at 3 μM, 4 hours, relative to fulvestrant
readout label: % Degradation at 3 μM

>  <chem smiles>
Cc1ccc(C2=C(c3ccc(O[C@H]4CCN(CCCF)C4)cc3)c3ccc(O)cc3SCC2)c(F)n1

>  <readout label>
% Degradation at 3 μM

>  <value reported>
91%

$$$$
>  <chem smiles>
[2H]C([2H])([2H])Oc1ccc(C2=C(c3ccc(O[C@H]4CCN(CCCF)C4)cc3)c3ccc(O)cc3SCC2)c(F)c1

>  <readout label>
% Degradation at 3 μM

>  <value reported>
92%

$$$$
>  <chem smiles>
Oc1ccc2c(c1)OCCC(c1cccc(F)c1Cl)=C2c1ccc(O[C@H]2CCN(CCCF)C2)cc1

>  <readout label>
% Degradation at 3 μM

>  <value reported>
93%

$$$$
>  <chem smiles>
Oc1ccc2c(c1)OCC(c1ccc(F)cc1Cl)=C2c1ccc(O[C@H]2CCN(CCCF)C2)cc1

>  <readout label>
% Degradation at 3 μM

>  <value reported>
86%

$$$$
>  <chem smiles>
Cc1cccc(C2=C(c3ccc(O[C@H]4CCN(CCCF)C4)cc3)c3ccc(O)cc3OCC2)c1C

>  <readout label>
% Degradation at 3 μM

>  <value reported>
91%

$$$$
>  <chem smiles>
Cc1ccc(C2=C(c3ccc(O[C@H]4CCN(CCCF)C4)cc3)c3cc(Cl)c(O)cc3OCC2)c(F)c1

>  <readout label>
% Degradation at 3 μM

>  <value reported>
82%

$$$$
>  <chem smiles>
Oc1ccc2c(c1)OCCC(c1ccc3c(c1)NCC3)=C2c1ccc(O[C@H]2CCN(CCCF)C2)cc1

>  <readout label>
% Degradation at 3 μM

>  <value reported>
88%

$$$$

====

assayed system: His6-ERα298-554 Y537S mutant (ERα ligand-binding domain) (Homo sapiens (Human), UniProt P03372, Y537S)
Sequence (P03372 298-554 Y537S): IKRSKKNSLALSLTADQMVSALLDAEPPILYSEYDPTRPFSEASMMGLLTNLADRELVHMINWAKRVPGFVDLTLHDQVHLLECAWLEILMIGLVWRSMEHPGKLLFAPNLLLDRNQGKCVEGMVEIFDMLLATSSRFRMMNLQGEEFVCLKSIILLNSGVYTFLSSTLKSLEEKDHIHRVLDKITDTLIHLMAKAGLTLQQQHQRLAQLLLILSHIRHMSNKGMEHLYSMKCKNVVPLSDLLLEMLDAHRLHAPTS
assay explanation: Test A: biochemical antagonist activity, LanthaScreen TR-FRET ERα coactivator assay, Y537S mutant
details: protocol with 3 nM estradiol; read-out: Antagonism Y537S IC50
IC50: recorded values

>  <chem smiles>
Oc1ccc2c(c1)OCCC(c1ccc3c(c1)NCC3)=C2c1ccc(O[C@H]2CCN(CCCF)C2)cc1

>  <IC50>
86 nM

$$$$
>  <chem smiles>
Oc1cc2c(cc1F)C(c1ccc(O[C@H]3CCN(CCCF)C3)cc1)=C(c1ccc3c(c1)CCN3)CCO2

>  <IC50>
1150 nM

$$$$
>  <chem smiles>
Cc1cc(C2=C(c3ccc(O[C@H]4CCN(CCCF)C4)cc3)c3ccc(O)cc3OCC2)ccc1Cl

>  <IC50>
25 nM

$$$$
>  <chem smiles>
Cc1cc2c(cc1O)OCCC(c1cccc(O)c1)=C2c1ccc(O[C@H]2CCN(CCCF)C2)cc1

>  <IC50>
44 nM

$$$$
>  <chem smiles>
Oc1cc2c(cc1Cl)C(c1ccc(O[C@H]3CCN(CCCF)C3)cc1)=C(c1ccc3c(c1)CCN3)CCO2

>  <IC50>
4000 nM

$$$$
>  <chem smiles>
Oc1ccc2c(c1)OCCC(c1ccc3cc[nH]c3c1)=C2c1ccc(O[C@H]2CCN(CCCF)C2)cc1

>  <IC50>
101 nM

$$$$
>  <chem smiles>
Oc1ccc2c(c1)SCC(c1ccc3[nH]ccc3c1)=C2c1ccc(O[C@H]2CCN(CCCF)C2)cc1

>  <IC50>
11 nM

$$$$
>  <chem smiles>
Cc1cc(F)ccc1C1=C(c2ccc(O[C@H]3CCN(CCCF)C3)cc2)c2cc(O)ccc2SCC1

>  <IC50>
16 nM

$$$$
>  <chem smiles>
Oc1ccc2c(c1)SCCC(c1ccc(F)cc1Cl)=C2c1ccc(O[C@H]2CCN(CCCF)C2)cc1

>  <IC50>
10 nM

$$$$
>  <chem smiles>
Cc1cc(F)ccc1C1=C(c2ccc(O[C@H]3CCN(CCCF)C3)cc2)c2ccc(O)cc2SCC1

>  <IC50>
8 nM

$$$$
>  <chem smiles>
Oc1ccc(C2=C(c3ccc(O[C@H]4CCN(CCCF)C4)cc3)c3ccc(O)cc3OC2)cc1

>  <IC50>
1160 nM

$$$$
>  <chem smiles>
Oc1ccc(C2=C(c3ccc(O[C@H]4CCN(CCCF)C4)cc3)c3cc(O)ccc3SCC2)cc1

>  <IC50>
29 nM

$$$$
>  <chem smiles>
Cc1cc(C2=C(c3ccc(O[C@H]4CCN(CCCF)C4)cc3)c3ccc(O)cc3S(=O)(=O)CC2)ccc1Cl

>  <IC50>
29 nM

$$$$
>  <chem smiles>
Oc1ccc2c(c1)OCCC(c1ccc(F)cc1Cl)=C2c1ccc(O[C@H]2CCN(CCCF)C2)cc1

>  <IC50>
22 nM

$$$$
>  <chem smiles>
Oc1ccc2c(c1)C(c1ccc(N[C@H]3CCN(CCCF)C3)cc1)=C(c1ccc(F)cc1Cl)CC2

>  <IC50>
958 nM

$$$$
>  <chem smiles>
CCOc1ccc(C2=C(c3ccc(O[C@H]4CCN(CCCF)C4)cc3)c3ccc(O)cc3OCC2)c(C)c1

>  <IC50>
6 nM

$$$$
>  <chem smiles>
Cc1cc2c(cc1O)OCCC(c1ccc3c(c1)CCN3)=C2c1ccc(O[C@H]2CCN(CCCF)C2)cc1

>  <IC50>
1220 nM

$$$$
>  <chem smiles>
Cc1ccc(C2=C(c3ccc(O[C@H]4CCN(CCCF)C4)cc3)c3cc(O)ccc3SCC2)c(F)c1

>  <IC50>
87 nM

$$$$
>  <chem smiles>
Oc1ccc2c(c1Cl)OCCC(c1ccc3c(c1)CCN3)=C2c1ccc(O[C@H]2CCN(CCCF)C2)cc1

>  <IC50>
200 nM

$$$$
>  <chem smiles>
Oc1ccc2c(c1)SCCC(c1ccc3c(c1)CCN3)=C2c1ccc(O[C@H]2CCN(CCCF)C2)cc1

>  <IC50>
20 nM

$$$$
>  <chem smiles>
Oc1cc2c(cc1Cl)C(c1ccc(O[C@H]3CCN(CCCF)C3)cc1)=C(c1ccc3[nH]ccc3c1)CCO2

>  <IC50>
4000 nM

$$$$
>  <chem smiles>
Oc1ccc2c(c1)C(c1ccc(O[C@H]3CCN(CCCF)C3)cc1)=C(c1ccc3[nH]ccc3c1)CC2

>  <IC50>
72 nM

$$$$
>  <chem smiles>
Oc1ccc2c(c1)C(c1ccc(O[C@H]3CCN(CCCF)C3)cc1)=C(c1ccc(F)cc1Cl)CCS2

>  <IC50>
65 nM

$$$$
>  <chem smiles>
Cc1ccc(C2=C(c3ccc(O[C@H]4CCN(CCCF)C4)cc3)c3cc(F)c(O)cc3OCC2)c(F)c1

>  <IC50>
253 nM

$$$$
>  <chem smiles>
Oc1ccc2c(c1F)OCCC(c1ccc3c(c1)CCN3)=C2c1ccc(O[C@H]2CCN(CCCF)C2)cc1

>  <IC50>
55 nM

$$$$
>  <chem smiles>
Cc1c(Cl)cccc1C1=C(c2ccc(O[C@H]3CCN(CCCF)C3)cc2)c2ccc(O)c(Cl)c2OCC1

>  <IC50>
150 nM

$$$$
>  <chem smiles>
CCOc1ccc(C2=C(c3ccc(O[C@H]4CCN(CCCF)C4)cc3)c3ccc(O)cc3SC2)c(F)c1

>  <IC50>
39 nM

$$$$
>  <chem smiles>
Oc1ccc2c(c1)SCCC(c1ccc3cc[nH]c3c1)=C2c1ccc(O[C@H]2CCN(CCCF)C2)cc1

>  <IC50>
18 nM

$$$$
>  <chem smiles>
COc1ccc(C2=C(c3ccc(O[C@H]4CCN(CCCF)C4)cc3)c3ccc(O)cc3OCC2)c(F)c1

>  <IC50>
13 nM

$$$$
>  <chem smiles>
Oc1ccc2c(c1)SCCC(c1ccc(Cl)c(F)c1)=C2c1ccc(O[C@H]2CCN(CCCF)C2)cc1

>  <IC50>
22 nM

$$$$
